# tgt: T1, His-tagged PD-L1 ECD protein (ACROBiosystems) (human, UniProt Q9NZQ7 19-238)
# T1 construct: Bought protein; also called PD-L1-His; PD-L1/His; not shown: His tag
# run description: SPR, supernatant IgG captured, PD-L1-His analyte
Overview of reported kon across a group of binders:
A number alone suffices; assume M⁻¹ s⁻¹.

53C1_chimeric (antibody, human IgG1, kappa, N297A, V domains shown, Human IgG1 with effector-less Fc mutations, human kappa; also called chimeric 53C1F3D4) VH: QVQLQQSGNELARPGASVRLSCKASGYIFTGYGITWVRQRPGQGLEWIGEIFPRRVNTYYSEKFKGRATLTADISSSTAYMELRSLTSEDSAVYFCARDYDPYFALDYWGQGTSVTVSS VL: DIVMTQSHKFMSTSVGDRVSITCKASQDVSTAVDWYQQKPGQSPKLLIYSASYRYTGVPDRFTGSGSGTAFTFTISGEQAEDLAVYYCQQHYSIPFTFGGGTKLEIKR; 250000
53C1_VH2-VL1.M1 (antibody, human IgG1, kappa, N297A, V domains shown, Humanized, hIgG1 effector-less Fc, kappa; see recheck on K24R in the .M1 light chain) VH: EVQLVQSGAEVKKPGASVKVSCKASGYIFTGYGITWVRQAPGQGLEWIGEIFPRRVNTYYSEKFKGRATLTTDTSTSTAYMELRSLRSDDTAVYFCARDYDPYFALDYWGQGTTVTVSS VL: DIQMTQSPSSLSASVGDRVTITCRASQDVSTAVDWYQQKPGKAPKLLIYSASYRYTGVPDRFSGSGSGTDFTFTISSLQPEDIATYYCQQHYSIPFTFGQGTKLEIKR; 240000
53C1_VH3-VL1.M1 (antibody, human IgG1, kappa, N297A, V domains shown, Humanized, hIgG1 effector-less Fc, kappa; see recheck on K24R in the .M1 light chain) VH: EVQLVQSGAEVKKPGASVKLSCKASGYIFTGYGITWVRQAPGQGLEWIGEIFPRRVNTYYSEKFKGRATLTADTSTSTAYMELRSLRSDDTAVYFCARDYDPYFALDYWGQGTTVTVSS VL: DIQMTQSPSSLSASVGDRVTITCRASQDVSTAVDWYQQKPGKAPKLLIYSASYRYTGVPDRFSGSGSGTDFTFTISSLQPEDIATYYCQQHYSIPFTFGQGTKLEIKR; 300000

Now take the following binder into account.
Ask: Find the recorded kon belonging to 53C1_VH3.M3-VL1.M1 (antibody, human IgG1, kappa, N297A, V domains shown, Humanized, VH N57Q in the entry; hIgG1 effector-less Fc, kappa; see recheck on K24R in the .M1 light chain) VH: EVQLVQSGAEVKKPGASVKLSCKASGYIFTGYGITWVRQAPGQGLEWIGEIFPRRVQTYYSEKFKGRATLTADTSTSTAYMELRSLRSDDTAVYFCARDYDPYFALDYWGQGTTVTVSS VL: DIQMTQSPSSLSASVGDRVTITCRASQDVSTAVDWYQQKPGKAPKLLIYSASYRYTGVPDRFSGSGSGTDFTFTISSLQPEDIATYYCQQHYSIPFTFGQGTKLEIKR and report it.
Reply: 350000

These entries and their values trace back to patent US20220135687A1.
